Hello, the source for this data is patent US11566007B2, in case you need it.

Target: K-Ras G13C (Homo sapiens (Human), UniProt P01116+P62937, G13C)
Sequence (P01116-2 other isoform, or with tags, fused parts or gaps G13C): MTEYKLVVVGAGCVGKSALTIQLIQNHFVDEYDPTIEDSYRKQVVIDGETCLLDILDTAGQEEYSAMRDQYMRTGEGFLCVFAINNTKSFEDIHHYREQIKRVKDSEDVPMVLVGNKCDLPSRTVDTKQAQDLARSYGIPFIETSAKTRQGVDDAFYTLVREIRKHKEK
Sequence (P62937 whole entry): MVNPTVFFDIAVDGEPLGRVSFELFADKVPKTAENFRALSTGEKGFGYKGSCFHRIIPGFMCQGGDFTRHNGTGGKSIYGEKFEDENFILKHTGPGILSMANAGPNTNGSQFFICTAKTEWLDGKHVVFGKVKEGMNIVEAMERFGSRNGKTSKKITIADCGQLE
Test: Ras-Raf (BRAF RBD) disruption / FRET / MOA assay, KRAS G13C
Assay type: biochemical
Conditions: KRAS G13C; Ras-Raf disruption/FRET/MOA assay; read-out: IC50* KRAS G13C FRET data
Please provide measured IC50 for the entries that follow.

>  <molecule>
CCn1c(-c2cccnc2[C@H](C)OC)c2c3cc(ccc31)-c1cccc(c1)C[C@H](NC(=O)[C@H](C1CCCC1)N(C)C(=O)[C@@H]1CN(C(=O)C#CC(C)(C)N(C)C)C[C@@H]1C)C(=O)N1CCC[C@H](N1)C(=O)OCC(C)(C)C2 (atropisomer, axis not shown)

>  <targetSystem>
K-Ras G13C (Homo sapiens (Human), UniProt P01116+P62937, G13C)

>  <IC50>
1 to 10 µM

$$$$
>  <molecule>
CC#CC(=O)N1CCC(C(=O)N(C)[C@H](C(=O)N[C@H]2Cc3nc(cs3)-c3ccc4c(c3)c(c(-c3cccnc3[C@H](C)OC)n4CC)CC(C)(C)COC(=O)[C@@H]3CCCN(N3)C2=O)C(C)C)C1 (atropisomer, axis not shown)

>  <targetSystem>
K-Ras G13C (Homo sapiens (Human), UniProt P01116+P62937, G13C)

>  <IC50>
1 to 10 µM

$$$$
>  <molecule>
C=CC(=O)N1CC[C@H](C(=O)N(C)[C@H](C(=O)N[C@H]2Cc3cccc(c3)-c3ccc4c(c3)c(c(-c3cc5c(nc3[C@H](C)OC)CN(C)CC5)n4CC)CC(C)(C)COC(=O)[C@@H]3CCCN(N3)C2=O)C(C)C)C1 (atropisomer, axis not shown)

>  <targetSystem>
K-Ras G13C (Homo sapiens (Human), UniProt P01116+P62937, G13C)

>  <IC50>
1 to 10 µM

$$$$

Then this molecule:
Consider the molecule `C=CC(=O)N1CC[C@H](C(=O)N(C)[C@H](C(=O)N[C@H]2Cc3cc(O)cc(c3)-c3ccc4c(c3)c(c(-c3ccccc3CCOC)n4CC)CC(C)(C)COC(=O)[C@]3(C)CCCN(N3)C2=O)C(C)C)C1` . State its measured IC50.
> 10 µM

----------
Target: KRAS G12S (Homo sapiens (Human), UniProt P01116+P62937, G12S)
Sequence (P01116-2 other isoform, or with tags, fused parts or gaps G12S): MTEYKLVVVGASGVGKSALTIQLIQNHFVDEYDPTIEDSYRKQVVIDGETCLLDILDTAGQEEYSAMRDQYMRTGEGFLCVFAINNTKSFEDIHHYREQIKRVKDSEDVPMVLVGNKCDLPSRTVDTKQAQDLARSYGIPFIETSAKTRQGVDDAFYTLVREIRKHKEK
Sequence (P62937 whole entry): as the sequence (P62937 whole entry) above
Experiment: Ras-Raf (BRAF RBD) disruption / FRET / MOA assay, KRAS G12S
Type: biochemical
Settings: Ras-Raf disruption/FRET/MOA assay; class symbols; read-out: KRAS G12S FRET data IC50
endpointLabel: IC50

>  <compound>
CCn1c(-c2cccnc2[C@H](C)OC)c2c3cc(ccc31)-c1cc(O)cc(c1)C[C@H](NC(=O)[C@H](C(C)C)N(C)C(=O)c1ncc(NC(=O)/C=C/CN(C)C)s1)C(=O)N1CCC[C@H](N1)C(=O)OCC(C)(C)C2 (atropisomer, axis not shown)

>  <targetSystem>
KRAS G12S (Homo sapiens (Human), UniProt P01116+P62937, G12S)

>  <IC50>
1 to 10 µM

$$$$
>  <compound>
C=CC(=O)N1CCC2(CC1)CCN([C@H](C(=O)N[C@H]1Cc3cc(O)cc(c3)-c3ccc4c(c3)c(c(-c3cccnc3[C@H](C)OC)n4CC)CC(C)(C)COC(=O)[C@@H]3CCCN(N3)C1=O)C(C)C)C2=O (atropisomer, axis not shown)

>  <targetSystem>
KRAS G12S (Homo sapiens (Human), UniProt P01116+P62937, G12S)

>  <IC50>
0.1 to 1 µM

$$$$
>  <compound>
CO[C@@H](C)c1ncccc1-c1c2c3cc(ccc3n1CC(F)(F)F)-c1csc(n1)C[C@H](NC(=O)[C@H](C(C)C)N(C)C(=O)N1C[C@@H]3OCCN(C(=O)/C=C/CF)[C@@H]3C1)C(=O)N1CCC[C@H](N1)C(=O)OCC(C)(C)C2 (atropisomer, axis not shown)

>  <targetSystem>
KRAS G12S (Homo sapiens (Human), UniProt P01116+P62937, G12S)

>  <IC50>
0.1 to 1 µM

$$$$
>  <compound>
CCn1c(-c2cccnc2[C@H](C)OC)c2c3cc(ccc31)-c1cccc(c1)C[C@H](NC(=O)[C@H](C(C)C)N(C)C(=O)[C@H]1CCN(C(=O)C#CC(C)(C)N(C)C)C1)C(=O)N1CCC[C@H](N1)C(=O)OCC(C)(C)C2 (atropisomer, axis not shown) [Example A290]

>  <targetSystem>
KRAS G12S (Homo sapiens (Human), UniProt P01116+P62937, G12S)

>  <IC50>
1 to 10 µM

$$$$
>  <compound>
CO[C@@H](C)c1ncccc1-c1c2c3cc(ccc3n1CC(F)(F)F)N1CCO[C@@H](C[C@H](NC(=O)[C@@H](COC3CN(C(=O)C#CC(C)(C)N(C)C)C3)C(C)C)C(=O)N3CCC[C@H](N3)C(=O)OCC(C)(C)C2)C1 (atropisomer, axis not shown)

>  <targetSystem>
KRAS G12S (Homo sapiens (Human), UniProt P01116+P62937, G12S)

>  <IC50>
> 10 µM

$$$$
>  <compound>
C=CC(=O)N1CC[C@H](C(=O)N(C)[C@H](C(=O)N[C@H]2Cc3cccc(c3)-c3ccc4c(c3)c(c(-c3cccnc3[C@H](C)OC)n4CC(F)F)CC(C)(C)COC(=O)[C@@H]3CCCN(N3)C2=O)C(C)C)C1 (atropisomer, axis not shown)

>  <targetSystem>
KRAS G12S (Homo sapiens (Human), UniProt P01116+P62937, G12S)

>  <IC50>
1 to 10 µM

$$$$

Consider the compound `CCn1c(-c2cccnc2[C@H](C)OC)c2c3cc(ccc31)-c1cc(O)cc(c1)C[C@H](NC(=O)[C@H](C(C)C)N(C)C(=O)c1ncc(NC(=O)/C=C/CN(C)C)n1C)C(=O)N1CCC[C@H](N1)C(=O)OCC(C)(C)C2` . State its measured IC50.
0.1 to 1 µM

----------
Please provide measured IC50 for the entries that follow.
Biological target: KRAS WT (Homo sapiens (Human), UniProt P01116+P62937)
Sequence (P01116-2 other isoform, or with tags, fused parts or gaps, one chain of several): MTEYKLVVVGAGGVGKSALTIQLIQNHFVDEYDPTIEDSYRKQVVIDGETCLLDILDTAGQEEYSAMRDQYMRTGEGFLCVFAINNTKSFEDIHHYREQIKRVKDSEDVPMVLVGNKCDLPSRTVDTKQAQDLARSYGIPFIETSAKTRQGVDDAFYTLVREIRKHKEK
Experiment: Ras-Raf (BRAF RBD) disruption / FRET / MOA assay, KRAS WT
Type: biochemical
Settings: read-out: IC50* KRAS WT FRET data
Description: The purpose of this biochemical assay is to measure the ability of test compounds to facilitate ternary complex formation between a nucleotide-loaded Ras isoform and cyclophilin A; the resulting ternary complex disrupts binding to a BRAF^RBD construct, inhibiting Ras signaling through a RAF effector. Compound is present in plate wells as a 10-point 3-fold dilution series starting at a final concentration of 30 μM. […]

>  <compound>
CCn1c(-c2cccnc2[C@H](C)OC)c2c3cc(ccc31)-c1nc(nn1C)C[C@H](NC(=O)[C@@H](COC1CN(C(=O)C#CC(C)(C)N(C)C)C1)C(C)C)C(=O)N1CCC[C@H](N1)C(=O)OCC(C)(C)C2 (atropisomer, axis not shown) [Example A720]

>  <IC50>
1000 to 10000 nM

$$$$

Then this compound:
Find IC50 for CC#CC(=O)N1CC(N(C)C(=O)N(C)[C@H](C(=O)N[C@H]2Cc3nc(cs3)-c3ccc4c(c3)c(c(-c3cccnc3[C@H](C)OC)n4CC)CC(C)(C)COC(=O)[C@@H]3CCCN(N3)C2=O)C(C)C)C1 (atropisomer, axis not shown) [Example A731] on KRAS WT (Homo sapiens (Human), UniProt P01116+P62937) and write it down.
100 to 1000 nM

----------
Molecular target: NRAS Q61R (Homo sapiens (Human), UniProt P01111+P62937, Q61R)
Sequence (P01111 whole entry Q61R, one chain of several): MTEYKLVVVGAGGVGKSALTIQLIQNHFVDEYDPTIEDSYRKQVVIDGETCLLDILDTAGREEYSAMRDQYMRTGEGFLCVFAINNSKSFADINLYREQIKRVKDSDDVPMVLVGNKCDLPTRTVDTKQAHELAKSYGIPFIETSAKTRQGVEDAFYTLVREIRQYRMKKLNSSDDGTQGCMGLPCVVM
Assay: Ras-Raf (BRAF RBD) disruption / FRET / MOA assay, NRAS Q61R
Type: biochemical
Details: NRAS Q61R; Ras-Raf disruption/FRET/MOA assay; read-out: IC50* NRAS Q61R FRET data
pIC50: −log10 of the molar value.
endpointLabel: pIC50

Worked cases, pIC50 given:
>  <compound>
C=CC(=O)N1CC(OC[C@H](C(=O)N[C@H]2C[C@H]3CN(CCO3)c3ccc4c(c3)c(c(-c3cccnc3[C@H](C)OC)n4CC(F)(F)F)CC(C)(C)COC(=O)[C@@H]3CCCN(N3)C2=O)C(C)C)C1 (atropisomer, axis not shown)

>  <pIC50>
< 5.00

$$$$
>  <compound>
C=CC(=O)N1CCOC2(CCN(C(=O)N(C)[C@H](C(=O)N[C@H]3Cc4cccc(c4)-c4ccc5c(c4)c(c(-c4cccnc4[C@H](C)OC)n5CC(F)(F)F)CC(C)(C)COC(=O)[C@@H]4CCCN(N4)C3=O)C(C)C)CC2)C1 (atropisomer, axis not shown)

>  <pIC50>
6.00 to 7.00

$$$$
>  <compound>
C=CC(=O)N1CC[C@]2(C1)OCN([C@H](C(=O)N[C@H]1Cc3cc(cc(C(F)F)c3)-c3ccc4c(c3)c(c(-c3cccnc3[C@H](C)OC)n4CC)CC(C)(C)COC(=O)[C@@H]3CCCN(N3)C1=O)C(C)C)C2=O (atropisomer, axis not shown)

>  <pIC50>
5.00 to 6.00

$$$$
>  <compound>
CO[C@@H](C)c1ncccc1-c1c2c3cc(ccc3n1CC(F)(F)F)-c1cc(CF)cc(c1)C[C@H](NC(=O)[C@@H](COC1CN(C(=O)C#CC(C)(C)N(C)C)C1)C(C)C)C(=O)N1CCC[C@H](N1)C(=O)OCC(C)(C)C2 (atropisomer, axis not shown)

>  <pIC50>
< 5.00

$$$$
>  <compound>
C=CC(=O)N1CC[C@H](C(=O)N(C)[C@H](C(=O)N[C@H]2C[C@H]3CN(CCO3)c3ccc4c(c3)c(c(-c3cccnc3COC)n4CC)CC(C)(C)COC(=O)[C@@H]3CCCN(N3)C2=O)C(C)C)C1

>  <pIC50>
< 5.00

$$$$

For each of the compounds below, note its pIC50.
1. CO[C@@H](C)c1ncccc1-c1c2c3cc(ccc3n1CC(F)(F)F)-c1nc(ns1)C[C@H](NC(=O)[C@@H](COC1CN(C(=O)C#CC(C)(C)N(C)C)C1)C(C)C)C(=O)N1CCC[C@H](N1)C(=O)OCC(C)(C)C2 (atropisomer, axis not shown)
2. CCn1c(-c2cccnc2[C@H](C)OC)c2c3cc(ccc31)N1CCO[C@@H](C[C@H](NC(=O)[C@@H](COC3CCN(C(=O)C#CC(C)(C)N(C)C)CC3)C(C)C)C(=O)N3CCC[C@H](N3)C(=O)OCC(C)(C)C2)C1 (atropisomer, axis not shown)
3. CCn1c(-c2cccnc2[C@H](C)OC)c2c3cc(ccc31)C1CCCN(C1)C[C@H](NC(=O)[C@@H](COC1CN(C(=O)C#CC(C)(C)N(C)C)C1)C(C)C)C(=O)N1CCC[C@H](N1)C(=O)OCC(C)(C)C2
4. CCn1c(-c2cccnc2[C@H](C)OC)c2c3cc(ccc31)N1CCO[C@@H](C[C@H](NC(=O)[C@@H](COC3CN(C(=O)C#CC(C)(C)N(C)C)C3)C(C)C)C(=O)N3CCC[C@H](N3)C(=O)OCC(C)(C)C2)C1 (atropisomer, axis not shown)
5. C=CC(=O)N1CC[C@H](C(=O)N(C)[C@H](C(=O)N[C@H]2Cc3cc(C)cc(c3)-c3ccc4c(c3)c(c(-c3cccnc3[C@H](C)OC)n4CC)CC(C)(C)COC(=O)[C@@H]3CCCN(N3)C2=O)C(C)C)C1 (atropisomer, axis not shown)
6. CO[C@@H](C)c1ncccc1-c1c2c3cc(ccc3n1CC(F)(F)F)N1CCO[C@@H](C[C@H](NC(=O)[C@H](C(C)C)N3CC[C@]4(CCN(C(=O)C#CC(C)(C)N(C)C)C4)C3=O)C(=O)N3CCC[C@H](N3)C(=O)OCC(C)(C)C2)C1 (atropisomer, axis not shown)
7. C=CC(=O)Nc1ncc(C(=O)N(C)[C@H](C(=O)N[C@H]2Cc3cccc(c3)-c3ccc4c(c3)c(c(-c3cccnc3[C@H](C)OC)n4CC)CC(C)(C)COC(=O)[C@@H]3CCCN(N3)C2=O)C(C)C)n1C (atropisomer, axis not shown)
8. CCn1c(-c2cccnc2[C@H](C)OC)c2c3cc(ccc31)-c1cccc(c1)C[C@H](NC(=O)[C@@H](COC1CN(C(=O)C#CC(C)(C)N(C)C3CC3)C1)C(C)C)C(=O)N1CCC[C@H](N1)C(=O)OCC(C)(C)C2 (atropisomer, axis not shown)

["< 5.00", "< 5.00", "< 5.00", "< 5.00", "5.00 to 6.00", "< 5.00", "5.00 to 6.00", "< 5.00"]

For each of the compounds below, note its pIC50.
1. CO[C@@H](C)c1ncccc1-c1c2c3nc(ccc3n1CC(F)(F)F)-c1cccc(c1)C[C@H](NC(=O)[C@@H](COC1CN(C(=O)C#CC(C)(C)N(C)C)C1)C(C)C)C(=O)N1CCC[C@H](N1)C(=O)OCC(C)(C)C2 (atropisomer, axis not shown)
2. C=CC(=O)N1CCO[C@@H]2CN(C(=O)N(C)[C@H](C(=O)N[C@H]3Cc4nc(cs4)-c4ccc5c(c4)c(c(-c4cccnc4[C@H](C)OC)n5CC)CC(C)(C)COC(=O)[C@@H]4CCCN(N4)C3=O)C(C)C)C[C@H]21 (atropisomer, axis not shown)

1: < 5.00; 2: 6.00 to 7.00
